Give measured ELISA [abs. corr.] for each item. Keep answers brief.
target entity: T1, CD134 protein (His-tagged, Sino Biological Inc. 10481-H08H) (human, UniProt P43489 29-216)
T1 construct: bought protein coated on ELISA plates; also called OX40; TNFRSF4; not shown: His tag
T1 sequence (looked up): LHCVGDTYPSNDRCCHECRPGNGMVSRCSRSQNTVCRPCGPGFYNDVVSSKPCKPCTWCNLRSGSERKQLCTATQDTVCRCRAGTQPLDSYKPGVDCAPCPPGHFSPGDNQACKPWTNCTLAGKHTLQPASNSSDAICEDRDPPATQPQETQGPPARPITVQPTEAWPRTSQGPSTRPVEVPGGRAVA
method notes: ELISA, coated His-tagged CD134; also: test concentration or dose not given here
Write the number in abs. corr. without appending the unit.

Task item: Report ELISA [abs. corr.], nothing else, for this binder: P018.S.11.A.B03 (antibody, V domains shown, V regions on human Ig constant parts; also called AB134_24) VH: QSLEESGGRLVTPGTPLTLTCTVSGFSLSNYAMSWVRQAPGKGLEWIAIISGSGSTNYASWAKGRFTLSKASTTVALKITSPTTEDTATYFCGRGRDDDYAWDLWGQGTLVTVSS VL: DVVMTQTPASVSEPVGGTVTIKCQASQTISNYLAWYQQKPGQPPKLLIYAASTLASGVSSRFRGSGSGTEFSLTISDLESADAATYYCHCTYYDSSYHGFGGGTEVVVK
Reply: 2.66

Task item: Report ELISA [abs. corr.], nothing else, for this binder: P018.S.12.A.B05 (antibody, V domains shown, V regions on human Ig constant parts; also called AB134_59) VH: QQQLVESGGGLVKPGASLTLTCKASGFFFSGSYYMCWVRQAPGKGLEWIACIYTGSDDDTNYASWAKGRFTISKTSSTTVTLQMTSLTAADTATYFCARRNYDTDWGGDLWGPGTLVTVSS VL: AVVLTQTPASVEAAVGGTVTIKCQASQSIGSSLAWYQQKPGQRPKLLIYYASNLASGVSSRFKGSGSGTQFTLTISDLESADAATYYCQCTYTSSDYLDAFGGGTEVVVK
Reply: 2.1

// data source = patent US20210253725A1
